Molecular target: XIAP-BIR3 (Homo sapiens (Human), UniProt P98170)
Sequence (P98170 241-356): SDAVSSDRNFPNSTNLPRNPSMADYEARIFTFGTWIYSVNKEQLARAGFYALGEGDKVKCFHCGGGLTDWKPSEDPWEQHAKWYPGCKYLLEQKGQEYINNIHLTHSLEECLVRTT
Test: BIR binding assay (FRET competition), XIAP BIR3
Procedure: The BIR domain binding assays are FRET based competition assays that utilize His-tagged versions of each of the BIR2 and BIR3 domains from cIAP1, cIAP2, and XIAP (each domain assayed separately) each at a custom optimal concentration and a probe, 200 nM SMAC/DIABLO peptide […] labelled with AlexaFluor647 (part #crb 1110326h, Discovery Peptides). The assay is conducted in 50 mM HEPES, […], 1 mM CHAPS, 5% Glycerol, 1 mM DTT, in dI water with a final pH of 7.4 and final volume of 20 uL. […]
pIC50: −log10 of the molar value.
pIC50 listing for selected molecules.

# chemical string, pIC50
records = [
    ("C[C@@H]1CN(CC(=O)N2CC(C)(C)c3[nH]c(=O)c(Cc4ccc(F)cc4)cc32)[C@@H](CN2CCN(C(=O)c3ccc(/C=C/c4ccc(C(=O)N5CCN(C[C@H]6CN[C@H](C)CN6CC(=O)N6CC(C)(C)c7[nH]c(=O)c(Cc8ccc(F)cc8)cc76)[C@H](C)C5)cc4)cc3)C[C@H]2C)CN1", "6.30 to 7.50"),
]

// next item, pIC50 requested
query: Given the entry C[C@@H]1CN(CC(=O)N2CC(C)(C)c3[nH]c(=O)c(Cc4ccc(F)cc4)cc32)[C@@H](CN2CCO[C@H](COc3ccc(C(C)(C)c4ccc(OC[C@@H]5CN(C[C@H]6CN[C@H](C)CN6CC(=O)N6CC(C)(C)c7[nH]c(=O)c(Cc8ccc(F)cc8)cc76)CCO5)cc4)cc3)C2)CN1 , report its measured pIC50.
result: 6.30 to 7.50

---

target: cIAP1-BIR3 (Homo sapiens (Human), UniProt Q13490); experiment: BIR binding assay (FRET competition), cIAP1 BIR3; conditions: fold separation (FS) for cIAP1
Sequence (Q13490 253-363): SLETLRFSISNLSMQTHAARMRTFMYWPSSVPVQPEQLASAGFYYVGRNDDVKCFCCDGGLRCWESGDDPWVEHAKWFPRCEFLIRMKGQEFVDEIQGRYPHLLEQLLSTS
measured parameter: cIAP1 BIR3 vs BIR2 separation window

# chemical string, measured parameter, val
rows = [
    ("C[C@@H]1CN(CC(=O)N2CC(C)(C)c3c2cc(Cc2ccc(F)cc2)c(=O)n3C)[C@@H](CN2CCO[C@H](COCC#CC#CCOC[C@@H]3CN(C[C@H]4CN[C@H](C)CN4CC(=O)N4CC(C)(C)c5c4cc(Cc4ccc(F)cc4)c(=O)n5C)CCO3)C2)CN1", "cIAP1 BIR3 vs BIR2 separation window", "+++ (10,000>FS>1,000)"),
    ("C[C@@H]1CN(CC(=O)N2CC(C)(C)c3ncc(Cc4ccc(F)cc4)cc32)[C@@H](CN2CCN(S(=O)(=O)c3cccc(S(=O)(=O)N4CCN(C[C@H]5CN[C@H](C)CN5CC(=O)N5CC(C)(C)c6ncc(Cc7ccc(F)cc7)cc65)[C@H](C)C4)c3)C[C@H]2C)CN1", "cIAP1 BIR3 vs BIR2 separation window", "+++ (10,000>FS>1,000)"),
]

---

biological target: cIAP1-BIR3 (Homo sapiens (Human), UniProt Q13490); test: BIR binding assay (FRET competition), cIAP1 BIR3
pIC50: −log10 of the molar value.
pIC50 listing for selected compounds.

Some solved entries appear below for comparison.
# compound, measured parameter, val
data = [
    ("C[C@@H]1CN(CC(=O)N2CC(C)(C)c3ncc(Cc4ccc(C(F)(F)F)cc4)cc32)[C@@H](CN2CCO[C@H](COc3cccc(OC[C@@H]4CN(C[C@H]5CN[C@H](C)CN5CC(=O)N5CC(C)(C)c6ncc(Cc7ccc(C(F)(F)F)cc7)cc65)CCO4)c3)C2)CN1 [Compound 149]", "pIC50", "6.30 to 7.50"),
    ("C[C@@H]1CN(CC(=O)N2CC(C)(C)c3[nH]c(=O)c(Cc4ccc(C(F)F)cc4)cc32)[C@@H](CN2CCO[C@H](C(=O)NCc3ccc(CNC(=O)[C@@H]4CN(C[C@H]5CN[C@H](C)CN5CC(=O)N5CC(C)(C)c6[nH]c(=O)c(Cc7ccc(C(F)F)cc7)cc65)CCO4)cc3)C2)CN1 [Compound 166]", "pIC50", "7.80 to 8.10"),
    ("C[C@@H]1CN(CC(=O)N2CC(C)(C)c3[nH]c(=O)c(Cc4ccc(F)cc4)cc32)[C@@H](CN2CCC(CCCOc3cccc(OCCCC4CCN(C[C@H]5CN[C@H](C)CN5CC(=O)N5CC(C)(C)c6[nH]c(=O)c(Cc7ccc(F)cc7)cc65)CC4)c3)CC2)CN1 [Example 109]", "pIC50", "7.50 to 7.80"),
    ("C[C@@H]1CN(CC(=O)N2CC(C)(C)c3[nH]c(=O)c(Cc4ccc(F)cc4)cc32)[C@@H](CN2CCO[C@H](COCCCCCOC[C@@H]3CN(C[C@H]4CN[C@H](C)CN4CC(=O)N4CC(C)(C)c5[nH]c(=O)c(Cc6ccc(F)cc6)cc54)CCO3)C2)CN1 [Example 82]", "pIC50", "7.50 to 7.80"),
    ("C[C@@H]1CN(CC(=O)N2CC(C)(C)c3[nH]c(=O)c(Cc4ccc(F)cc4)cc32)[C@@H](CN2CCC(CNC(=O)Cc3ccc(CC(=O)NCC4CCN(C[C@H]5CN[C@H](C)CN5CC(=O)N5CC(C)(C)c6[nH]c(=O)c(Cc7ccc(F)cc7)cc65)CC4)cc3)CC2)CN1 [Example 102]", "pIC50", "7.80 to 8.10"),
    ("C[C@@H]1CN(CC(=O)N2CC(C)(C)c3[nH]c(=O)c(Cc4ccc(F)cc4)cc32)[C@@H](CN2CCO[C@H](C(=O)N(C)CCCN(C)C(=O)[C@@H]3CN(C[C@H]4CN[C@H](C)CN4CC(=O)N4CC(C)(C)c5[nH]c(=O)c(Cc6ccc(F)cc6)cc54)CCO3)C2)CN1 [Example 130]", "pIC50", "8.10 to 8.86"),
    ("C[C@@H]1CN(CC(=O)N2CC(C)(C)c3[nH]c(=O)c(Cc4ccc(Cl)cc4Cl)cc32)[C@@H](CN2CCO[C@H](COc3cccc(OC[C@@H]4CN(C[C@H]5CN[C@H](C)CN5CC(=O)N5CC(C)(C)c6[nH]c(=O)c(Cc7ccc(Cl)cc7Cl)cc65)CCO4)c3)C2)CN1 [Compound 187]", "pIC50", "7.80 to 8.10"),
    ("C[C@@H]1CN(CC(=O)N2CC(C)(C)c3[nH]c(=O)c(Oc4ccc(Cl)cc4)cc32)[C@@H](CN2CCO[C@H](C(=O)NCc3ccc(CNC(=O)[C@@H]4CN(C[C@H]5CN[C@H](C)CN5CC(=O)N5CC(C)(C)c6[nH]c(=O)c(Oc7ccc(Cl)cc7)cc65)CCO4)cc3)C2)CN1 [Compound 182]", "pIC50", "7.80 to 8.10"),
]

query: Given the entry C[C@@H]1CN(CC(=O)N2CC(C)(C)c3[nH]c(=O)c(Cc4ccc(F)cc4)cc32)[C@@H](CN2CCC(CN(C)C(=O)Cc3ccc(C(=O)N(C)CC4CCN(C[C@H]5CN[C@H](C)CN5CC(=O)N5CC(C)(C)c6[nH]c(=O)c(Cc7ccc(F)cc7)cc65)CC4)cc3)CC2)CN1 [Example 97] , report its measured pIC50.
result: 8.10 to 8.86

query: Given the entry C[C@@H]1CN(CC(=O)N2CC(C)(C)c3[nH]c(=O)c(Cc4ccc(F)cc4)cc32)[C@@H](CN2CCO[C@H](COc3cccc(OC[C@@H]4CN(C[C@H]5CN[C@H](C)CN5CC(=O)N5CC(C)(C)c6[nH]c(=O)c(Cc7ccc(F)cc7)cc65)CCO4)c3Cl)C2)CN1 [Example 88] , report its measured pIC50.
result: 7.80 to 8.10

query: Given the entry C[C@@H]1CN(CC(=O)N2CC(C)(C)c3[nH]c(=O)c(Cc4ccc(F)cc4F)cc32)[C@@H](CN2CCO[C@H](C(=O)NCc3ccc(CNC(=O)[C@@H]4CN(C[C@H]5CN[C@H](C)CN5CC(=O)N5CC(C)(C)c6[nH]c(=O)c(Cc7ccc(F)cc7F)cc65)CCO4)cc3)C2)CN1 [Compound 177] , report its measured pIC50.
result: 7.50 to 7.80

query: Given the entry C[C@@H]1CN(CC(=O)N2CC(C)(C)c3[nH]c(=O)c(Cc4ccc(F)cc4)cc32)[C@@H](CN2CCO[C@H](COc3ccc(S(=O)(=O)c4ccc(OC[C@@H]5CN(C[C@H]6CN[C@H](C)CN6CC(=O)N6CC(C)(C)c7[nH]c(=O)c(Cc8ccc(F)cc8)cc76)CCO5)cc4)cc3)C2)CN1 [Example 57] , report its measured pIC50.
result: 6.30 to 7.50

query: Given the entry C[C@@H]1CN(CC(=O)N2CC(C)(C)c3[nH]c(=O)c(Cc4c(F)c(F)c(F)c(F)c4F)cc32)[C@@H](CN2CCO[C@H](C(=O)NCc3ccc(CNC(=O)[C@@H]4CN(C[C@H]5CN[C@H](C)CN5CC(=O)N5CC(C)(C)c6[nH]c(=O)c(Cc7c(F)c(F)c(F)c(F)c7F)cc65)CCO4)cc3)C2)CN1 [Compound 176] , report its measured pIC50.
result: 6.30 to 7.50

query: Given the entry Cc1ccc(Oc2cc3c([nH]c2=O)C(C)(C)CN3C(=O)CN2C[C@@H](C)NC[C@@H]2CN2CCO[C@H](C(=O)NCc3ccc(CNC(=O)[C@@H]4CN(C[C@H]5CN[C@H](C)CN5CC(=O)N5CC(C)(C)c6[nH]c(=O)c(Oc7ccc(C)cc7)cc65)CCO4)cc3)C2)cc1 [Compound 184] , report its measured pIC50.
result: 7.80 to 8.10
